# assayed system: aromatase (Rattus norvegicus, UniProt P22443)
# Sequence (P22443 whole entry): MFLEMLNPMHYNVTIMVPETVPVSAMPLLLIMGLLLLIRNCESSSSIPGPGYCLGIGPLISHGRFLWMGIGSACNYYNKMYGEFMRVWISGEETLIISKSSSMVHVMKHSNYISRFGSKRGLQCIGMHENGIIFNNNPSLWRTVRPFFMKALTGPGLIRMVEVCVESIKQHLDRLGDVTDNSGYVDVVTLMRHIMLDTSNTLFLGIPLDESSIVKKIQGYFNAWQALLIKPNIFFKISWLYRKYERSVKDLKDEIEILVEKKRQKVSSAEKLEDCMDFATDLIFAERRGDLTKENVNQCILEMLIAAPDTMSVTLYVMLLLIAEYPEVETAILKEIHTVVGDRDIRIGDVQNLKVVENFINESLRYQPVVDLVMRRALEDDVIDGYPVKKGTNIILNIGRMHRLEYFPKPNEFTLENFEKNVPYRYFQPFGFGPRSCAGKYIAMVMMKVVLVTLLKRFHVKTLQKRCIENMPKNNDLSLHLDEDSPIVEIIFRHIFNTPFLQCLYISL
# test description: biochemical
# measurement context: rat ovarian microsomes; substrate (androstenedione) concentration 0.1 μM; inhibitors tested between 0.005 and 10 μM
pEC50: −log10 of the molar value.
endpoint label: pEC50

>  <chemical string>
Clc1ccc(C(c2ccc(Cl)cc2)(c2ccns2)n2cncn2)cc1

>  <assayed system>
aromatase (Rattus norvegicus, UniProt P22443)

>  <endpoint label>
pEC50

>  <reported value>
7.29

$$$$
>  <chemical string>
c1ccc(C(c2ccccc2)(c2ccns2)n2cncn2)cc1

>  <assayed system>
aromatase (Rattus norvegicus, UniProt P22443)

>  <endpoint label>
pEC50

>  <reported value>
6.59

$$$$
